Experiment: Quantitative High-Throughput drug screen in 47 multiple myeloma cell lines against the NCATS MIPE library collection: XG1_PLB cell viability assay (AID 1919866); note: nearly all actives have a fitted effect of over 35% in size
Conditions: CellTiter-Glo ATP, 48 h; series mostly up to 45.8 µM
Results filed as inconclusive are left out. Activity calls are given as the source filed them. Calls come from the whole dose curve; as a rule, active = well fitted cell-killing curve with a large enough effect; inconclusive = small, poorly fitted or top-dose-only effect, or effect the other way; inactive = no such curve, though single readings can be large or run the other way.
Reply using exactly one outcome from active, inactive

Examples with answers:
CCOC(=O)[C@H](CCc1ccccc1)N[C@H]1CCc2ccccc2N(CC(=O)O)C1=O ... active
CC(C)(C)NC(=O)[C@H]1CC[C@H]2[C@@H]3CC[C@H]4NC(=O)C=C[C@]4(C)[C@H]3CC[C@]12C ... active
NCCCC(O)(P(=O)(O)O)P(=O)(O)O ... inactive
CCn1cc(C(=O)O)c(=O)c2cc(F)c(N3CCN(C)CC3)cc21 ... inactive
Nc1nc(N)nc(-c2cc(Cl)ccc2Cl)n1 ... inactive
CC1CC2C3CCC4=CC(=O)C=C[C@]4(C)[C@@]3(F)[C@@H](O)C[C@]2(C)[C@@]1(O)C(=O)CO (stereo partly drawn) ... inactive
COc1ccc(C(=O)CC(=O)c2ccc(C(C)(C)C)cc2)cc1 ... active
CNCC[C@H](Oc1cccc2ccccc12)c1cccs1 ... active

Challenge: Recorded test outcome, item CCN(CC)CCn1c(=O)c(Cc2ccc(OC)cc2)nc2ccccc21
Response given: inactive

Challenge: Recorded call for CC(=O)Oc1ccccc1C(=O)Nc1ncc([N+](=O)[O-])s1 ?
Response given: active

Challenge: Record lookup: outcome of this test for NC(=O)c1cccnc1 ?
Response given: inactive

Challenge: How was CCOC(=O)[C@H](CCc1ccccc1)N[C@H]1CS[C@H](c2cccs2)CN(CC(=O)O)C1=O classified in this test?
Response given: active

Challenge: Called result for NC(=O)N1c2ccccc2CC(=O)c2ccccc21
Response given: inactive

Challenge: For this compound, state the assay outcome: Cc1nnc(C(=O)NC(C)(C)c2nc(C(=O)NCc3ccc(F)cc3)c(O)c(=O)n2C)o1
Response given: inactive

Challenge: Which result was noted for this compound in the test: NNC(=O)c1ccncc1
Response given: inactive

Challenge: Could you kindly confirm the outcome this assay logged for COC(=O)Nc1nc2ccc(C(=O)c3ccccc3)cc2[nH]1 ?
Response given: active

Challenge: Fill in: this test's call for CCc1cc(C(N)=S)ccn1 is ___
Response given: inactive

Challenge: Identify the outcome logged in this assay for the compound shown: Nc1nc(F)nc2c1ncn2[C@@H]1O[C@H](CO)[C@@H](O)[C@@H]1O
Response given: active

====

Experiment: Quantitative High-Throughput drug screen in 47 multiple myeloma cell lines against the NCATS MIPE library collection: INA6_PLB cell viability assay (AID 1918965; note: nearly all actives have a fitted effect of over 55% in size)
Settings: INA6 myeloma viability, CellTiter-Glo ATP luminescence, 48 h; series mostly up to 45.8 µM
Inconclusive results are not listed. Calls of active or inactive are those of the source. Calls come from the whole dose curve; as a rule, active = well fitted cell-killing curve with a large enough effect; inconclusive = small, poorly fitted or top-dose-only effect, or effect the other way; inactive = no such curve, though single readings can be large or run the other way.
Choose the fitting class; nothing outside active, inactive is accepted.

Solved entries:
CC1=NN(c2ccccc2)C(=O)C1 ... active
C[C@@H]1CN(c2c(F)c(N)c3c(=O)c(C(=O)O)cn(C4CC4)c3c2F)C[C@H](C)N1 ... inactive
CC1(C)[C@H](C(=O)O)N2C(=O)C[C@H]2S1(=O)=O ... inactive
N[C@@H](C(=O)N[C@@H]1C(=O)N2C(C(=O)O)=C(Cl)CS[C@H]12)c1ccccc1 ... inactive
CCn1cc(C(=O)O)c(=O)c2cc(F)c(N3CCNCC3)nc21 ... inactive
COc1ccccc1OCC(O)COC(N)=O (stereo unspecified) ... inactive

Challenge: Recorded test call requested for Nc1ccc(S(=O)(=O)Nc2ccccn2)cc1
Response given: inactive

Challenge: I would be grateful if you could indicate the recorded call for CN(C)CCc1c[nH]c2ccc(C[C@H]3COC(=O)N3)cc12 .
Response given: active

Challenge: Any idea what this test logged for CCN(C)C(=O)Oc1cccc([C@H](C)N(C)C)c1 ?
Response given: inactive

Challenge: Given CN(C)c1ccc(C(=C2C=CC(=[N+](C)C)C=C2)c2ccc(N(C)C)cc2)cc1 , state the outcome it received in this test.
Response given: active

Challenge: What call does the record list for Cc1cccc(N(C)C(=S)Oc2ccc3ccccc3c2)c1 ?
Response given: inactive

Challenge: Dear all, I need the recorded test outcome for CCc1c2c(nc3ccc(OC(=O)N4CCC(N5CCCCC5)CC4)cc13)-c1cc3c(c(=O)n1C2)COC(=O)[C@]3(O)CC , thank you.
Response given: active

====

Assay: qHTS of pediatric cancer cell lines to identify multiple opportunities for drug repurposing: Primary screen for LAN-5 cells (AID 1347100);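 note: plate controls were DMSO neutral control for no effect and bortezomib positive control for full effect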
Settings: LAN-5 neuroblastoma viability, CellTiter-Glo luminescence, 48 h; series mostly up to 46 µM
Description: Drug repurposing or repositioning has been offered as a strategy for drug development in oncology programs. […] [1] Shen, M et al. Quantitative high-throughput phenotypic screening of pediatric cancer cell lines identifies multiple opportunities for drug repurposing. […] Cells were assayed in growth media at a density of 500-1,000 cells/well. […] After a 15 min incubation at room temperature, samples were analyzed for luminescence intensity using a ViewLux High-throughput CCD imager equipped with clear filters.
Results filed as inconclusive are left out. The source made the active and inactive calls. Calls come from the whole dose curve; as a rule, active = well fitted cell-killing curve with a large enough effect; inconclusive = small, poorly fitted or top-dose-only effect; inactive = no such curve, though single readings can be large or run the other way.
test readout: outcome

Reference set (5 entries):
CNC1CCCN(c2c(F)cc3c(=O)c(C(=O)O)cn(C4CC4)c3c2OC)C1 (stereo unspecified) ... inactive
C[C@@H](NCCCc1cccc(C(F)(F)F)c1)c1cccc2ccccc12 ... inactive
O=C(O)C1CCCN(CCC=C(c2ccccc2)c2ccccc2)C1 (stereo unspecified) ... inactive
NCCCC(O)(P(=O)(O)O)P(=O)(O)O ... inactive
O=C(O)c1cc(=O)[nH]c(=O)[nH]1 ... inactive

For CS(=O)(=O)c1ccc([C@@H](O)[C@@H](CO)NC(=O)C(Cl)Cl)cc1 the compound record lists outcome as inactive

====

Assay: qHTS of pediatric cancer cell lines to identify multiple opportunities for drug repurposing: Confirmatory screen for BT-12 cells (AID 1347112);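 note: viability read after 48 h of compound exposure; nearly all actives have a fitted effect of over 55% in size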
Settings: BT-12 rhabdoid tumor cells, viability; series mostly up to 45.9 µM
Records with an inconclusive call do not appear. The source made the active and inactive calls. Calls come from the whole dose curve; as a rule, active = well fitted cell-killing curve with a large enough effect; inconclusive = small, poorly fitted or top-dose-only effect; inactive = flat fitted curve, though single readings scatter.
Respond using exactly one of the listed classes: True for active, False for inactive

COc1ccc(-c2ccc3cc(C(=O)O)ccc3c2)cc1C12CC3CC(CC(C3)C1)C2 ... False
CC1CC2C3CCC4=CC(=O)C=C[C@]4(C)[C@@]3(F)[C@@H](O)C[C@]2(C)[C@@]1(O)C(=O)CO (some centres undefined) ... False
CO[C@@]12[C@H](COC(N)=O)C3=C(C(=O)C(C)=C(N)C3=O)N1C[C@@H]1N[C@@H]12 ... True

Challenge: Kindly provide the recorded test outcome for the following molecule: CC(C)(C)C(=O)OCOP(=O)(COCCn1cnc2c(N)ncnc21)OCOC(=O)C(C)(C)C
Response given: True

Challenge: How was CC(C)C[C@H](NC(=O)[C@H](CCc1ccccc1)NC(=O)CN1CCOCC1)C(=O)N[C@@H](Cc1ccccc1)C(=O)N[C@@H](CC(C)C)C(=O)[C@@]1(C)CO1 classified in this test?
Response given: True

Challenge: For this molecule, state the assay outcome: COc1cc2c(Nc3ccc(Br)cc3F)ncnc2cc1OCC1CCN(C)CC1
Response given: False

Challenge: How did this test come out for CCOC(=O)[C@H](CCc1ccccc1)N[C@H]1CS[C@H](c2cccs2)CN(CC(=O)O)C1=O ?
Response given: False

Challenge: Per the records of this test, what outcome belongs to CNS(=O)(=O)CCc1ccc2[nH]cc(C3CCN(C)CC3)c2c1 ?
Response given: False

====

Overview of recorded caspase-3 activation for various compounds
Test: Cellular Toxicity (caspase-3) Hek293 (AID 664);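 note: cells exposed to compound for 16 h at 37 °C before readout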
Details: HEK293 caspase-3 activation, DMSO = 0%, 100 µM tamoxifen = 100%; at 92.2 µM (top of the series)
Inconclusive results are not listed.
Kindly answer with a numeric value in %, unit omitted.

Cc1nnc(NS(=O)(=O)c2ccc(N)cc2)s1 ... -0.508
CC[C@H](C)C(=O)O[C@H]1C[C@@H](C)C=C2C=C[C@H](C)[C@H](CC[C@@H]3C[C@@H](O)CC(=O)O3)[C@H]21 ... -1.73
CC1=NN(c2ccccc2)C(=O)C1 ... 1.55

O=C(O)c1cc(=O)[nH]c(=O)[nH]1 yielded caspase-3 activation of -0.467

Lab note: NNC(=O)c1ccncc1 gave caspase-3 activation of 0.113

So, C[C@]12C=CC(=O)C=C1CC[C@@H]1[C@@H]2C(=O)C[C@@]2(C)[C@H]1CC[C@]2(O)C(=O)CO ? Its caspase-3 activation was -0.65

====

Assay: Quantitative High-Throughput drug screen in 47 multiple myeloma cell lines against the NCATS MIPE library collection: KMS21BM_JCRB cell viability assay (AID 1918974)
Details: ATP luminescence, 48 h
Records with an inconclusive call do not appear. Calls of active or inactive are those of the source. Calls follow the shape of the dose curve; as a rule, active = well fitted cell-killing curve with a large enough effect; inconclusive = small, poorly fitted or top-dose-only effect, or effect the other way; inactive = no such curve, though single readings can be large or run the other way.
Would you mind answering with one of these outcomes? active, inactive

Cc1nnc(NS(=O)(=O)c2ccc(N)cc2)s1 ... active

Continue with the next molecule.
Challenge: Check the results log: what was the call for CCOC(=O)[C@H](CCc1ccccc1)N[C@H]1CS[C@H](c2cccs2)CN(CC(=O)O)C1=O ?
Response given: active
